assay: Rat pharmacokinetic test, single subcutaneous injection; parameters: species or system SD rats; settings: male, SD, in vivo; 2 w after single SC; CBD solution 300 μg/head, IVL5005 9 mg/head; rat serum; read-out: blood CBD concentration
quantityKind: concentration at 2 w (ng/mL)
Supply the numeric figure in ng/mL, leaving out any unit text.

[ask] Which concentration at 2 w value belongs to C=C(C)[C@@H]1CCC(C)=C[C@H]1c1c(O)cc(CCCCC)cc1O [CBD solution, Cannabidiol] ?
[reply] 0

----------
experiment: Rat pharmacokinetic test, single subcutaneous injection; parameters: species or system SD rats; conditions: male, SD, in vivo; 1 d after single SC; CBD solution 300 μg/head, IVL5005 9 mg/head; rat serum; read-out: blood CBD concentration
quantityKind: concentration at 1 d

[ask] So what's the measured concentration at 1 d for this one? C=C(C)[C@@H]1CCC(C)=C[C@H]1c1c(O)cc(CCCCC)cc1O [CBD solution, Cannabidiol]
[reply] 3940 ng/mL

Taken from patent US20260130857A1.
